Origin of values: paper PMC4829233

Target: TbTryS (Trypanosoma brucei trypanothione synthetase) (Trypanosoma brucei brucei, UniProt Q8IEX1)
Sequence (Q8IEX1 1-627): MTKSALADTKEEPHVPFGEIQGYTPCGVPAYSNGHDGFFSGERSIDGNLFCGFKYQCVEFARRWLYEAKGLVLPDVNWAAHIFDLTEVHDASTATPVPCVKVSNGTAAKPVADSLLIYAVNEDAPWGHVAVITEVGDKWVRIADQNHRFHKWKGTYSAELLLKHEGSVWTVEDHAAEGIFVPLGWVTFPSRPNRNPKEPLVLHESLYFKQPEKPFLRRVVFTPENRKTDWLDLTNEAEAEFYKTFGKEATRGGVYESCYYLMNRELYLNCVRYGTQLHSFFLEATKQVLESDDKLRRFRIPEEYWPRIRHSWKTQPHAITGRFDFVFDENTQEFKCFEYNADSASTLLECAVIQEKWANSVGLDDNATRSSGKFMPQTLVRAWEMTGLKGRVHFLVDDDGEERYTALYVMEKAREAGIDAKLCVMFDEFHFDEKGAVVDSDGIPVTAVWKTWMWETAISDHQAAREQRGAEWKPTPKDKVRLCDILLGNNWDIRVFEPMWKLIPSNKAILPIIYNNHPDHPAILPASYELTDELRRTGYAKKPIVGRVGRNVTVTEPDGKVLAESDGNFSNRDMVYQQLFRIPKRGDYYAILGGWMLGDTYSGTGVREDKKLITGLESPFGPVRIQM
Field: IC50. Provide a value for each of the compounds that follow.

Ask: Can you look up the measured IC50 of `CNCCNC(=O)CN1C(=O)Cc2c([nH]c3cc(C(F)(F)F)ccc23)-c2ccccc21` for me?
Result: ~75 µM

Ask: Can you look up the measured IC50 of `CC(C)(C)NC(=O)Nc1nc2nc(N)ncc2cc1-c1ccc2ccccc2c1` for me?
Result: ~30 µM

Ask: Can you look up the measured IC50 of `CC(C)c1ccc(CNCCCCCCCCCCNCc2ccc(C(C)C)cc2)cc1` for me?
Result: ~30 µM

Ask: Can you look up the measured IC50 of `COc1cc(CNCCCCCCCCNCc2ccc(OCc3ccccc3)c(OC)c2)ccc1OCc1ccccc1` for me?
Result: ≤ 30 µM

Ask: Can you look up the measured IC50 of `Brc1ccc(CNCCCCCCCCCCCCNCc2ccc(Br)cc2)cc1` for me?
Result: ~30 µM

Ask: Can you look up the measured IC50 of `COc1cc(CNCCCCNCc2ccc(OCc3ccccc3)c(OC)c2)ccc1OCc1ccccc1` for me?
Result: ~30 µM

Ask: Can you look up the measured IC50 of `c1ccc(COc2ccc(CNCCCCCCNCc3ccc(OCc4ccccc4)cc3)cc2)cc1` for me?
Result: ~30 µM

Ask: Can you look up the measured IC50 of `COc1cc(CNCCCCCCNCc2ccc(OCc3ccccc3)c(OC)c2)ccc1OCc1ccccc1` for me?
Result: ≤ 30 µM

----------
Target: TbTryS (Trypanosoma brucei trypanothione synthetase) (Trypanosoma brucei brucei, UniProt Q8IEX1)
Assay: biochemical
Details: read-out: % TbTryS inhibition ± 2σn-1
Field: inhibition at 30 µM. Provide a value for each of the compounds that follow.
Only the number, expressed in %, is required.

Ask: Can you look up the measured inhibition at 30 µM of `COc1cc(CNCCCCNCc2ccc(OCc3ccccc3)c(OC)c2)ccc1OCc1ccccc1` for me?
Result: 50.9

Ask: Can you look up the measured inhibition at 30 µM of `CC(C)(C)NC(=O)Nc1ncc2cc(-c3ccc4c(c3)OCO4)c(NC(=O)NC(C)(C)C)nc2n1` for me?
Result: 25.3

Ask: Can you look up the measured inhibition at 30 µM of `COc1cc(CNCCCCCCNCc2ccc(OCc3ccccc3)c(OC)c2)ccc1OCc1ccccc1` for me?
Result: 61.2

Ask: Can you look up the measured inhibition at 30 µM of `CCNC(=S)Nc1nc2nc(N)ncc2cc1-c1ccc2c(c1)OCO2` for me?
Result: 20.9

Ask: Can you look up the measured inhibition at 30 µM of `CC(C)(C)NC(=O)Nc1nc2nc(N)ncc2cc1-c1ccc2ccccc2c1` for me?
Result: 50

Ask: Can you look up the measured inhibition at 30 µM of `c1ccc(COc2ccc(CNCCCCNCc3ccc(OCc4ccccc4)cc3)cc2)cc1` for me?
Result: 37.9

Ask: Can you look up the measured inhibition at 30 µM of `COc1cc(CNCCCCCCCCNCc2ccc(OCc3ccccc3)c(OC)c2)ccc1OCc1ccccc1` for me?
Result: 55.6

Ask: Can you look up the measured inhibition at 30 µM of `CC(C)c1ccc(CNCCCCCCCCCCNCc2ccc(C(C)C)cc2)cc1` for me?
Result: 50
